- Test system: MDA-MB-435
- Test Name: NCI tumour cell line growth inhibition, 48 h
Measured TGI, listed per entry.
Express it in µM; write the number only.

Cc1ccc2c(c1)C(O)(c1ccccc1)CCS2 (stereo not given)	73.2

// switching to the query molecule
Give its TGI value. Item: Cc1cc(S(=O)(=O)NC2=NCC(C)(C)CN2)c(S)cc1Cl 85.1

====

- Tested on: NCI/ADR-RES ovarian
- Test Name: NCI tumour cell line growth inhibition, 48 h; in the data active means GI50 below about 0.43 µM; inactive means the rest
Respond using exactly one of the listed classes: active, inactive

Some entries whose results are on file:
CCCCC[C@H]1C/C=C2/C(=O)C(Cl)=C[C@@H]2C/C=C\CCCC(=O)O1	active
NCCCNc1nc2ccccc2c2c(=O)c3cc(F)cc(Cl)c3sc12	inactive
CCOC(=O)c1cc2c(n1Cc1cc(OC)cc(OC)c1)-c1oncc1CC2	active
COc1cc(NCCC2CCCCN2)c2ncccc2c1OC (centres undefined)	inactive
CC[Si](CC)(CC)OC1[C@@H](O[Si](CC)(CC)CC)[C@@H](CNC(=O)NC)O[C@H]1n1cnc2c(NC(=O)Nc3ccccc3)ncnc21 (some centres undefined)	inactive
O=C(CCl)Nc1ccc(Cc2ccc(NC(=O)CCl)cc2)cc1	inactive
Cc1ccc(C2C3Cc4ccccc4C3=NN2c2ccc(S(=O)(=O)NC(=O)Nc3ccccc3)cc2)cc1 (centres undefined)	inactive
C/C=C(\C)C(=O)O[C@@H]1C=CC(=O)O[C@H]1CNC(=O)[C@H](C)O	inactive

Let us examine a further case.
Could you kindly confirm the outcome this assay logged for COc1ccc(NC(=O)c2cccc(C3CCc4c(cc(OC)c(OC)c4OC)O3)c2)cc1 (centres undefined) ? inactive

====

In this section we review reported TGI values for a set of molecules.
- Test system: U251 CNS
- Test Name: NCI tumour cell line growth inhibition, 48 h

A selection of reference data follows.
O=C(NCc1ccccc1)C1C(=O)C(=O)N(Cc2ccccc2)C1=O (centres undefined)	> 100 µM
COc1ccc(NC(=O)NNS(=O)(=O)c2ccc(C)cc2)cc1	> 100 µM
COc1ccc(N[C@@H]2c3cc4c(cc3C(c3cc(OC)c(O)c(OC)c3)[C@H]3C(=O)OCC32)OCO4)cc1OC (some centres undefined)	> 67.5 µM
Cn1c(N)c(/C=C/C(=O)Oc2ccccc2)c(=O)n(C)c1=O	> 100 µM
CC(C)(C)OC(=O)N1Cc2cc3ccccc3nc2C1CO (centres undefined)	> 100 µM

Could you now look at the following molecule, please?
Give TGI (U251 CNS) of the following molecule: COC(=O)C(=O)C(C(C)=O)C(=O)C(=O)Nc1ccc(C)cc1C (centres undefined) > 100 µM

====

Each entry below lists one item and its recorded TGI value.
- Test system: PC-3 prostate
- Test Name: NCI tumour cell line growth inhibition, 48 h

Answered cases to consult:
CCOC(=O)CCc1ccc(NC(=O)/C=C/c2ccc([N+](=O)[O-])o2)cc1	> 29.9 µM
CC(=N\O)/C(C)=N/O.CC(=N\O)/C(C)=N/O.[Fe].[NH2-].c1c[nH]cn1	> 100 µM
COc1cc([C@@H]2c3cc4c(cc3[C@@H](NC(=O)NO)[C@H]3COC(=O)[C@H]23)OCO4)cc(OC)c1O	> 100 µM
Clc1ccc(N2N=C(c3cccc(Nc4ccncc4)c3)CC2c2ccc(Br)cc2)cc1 (centres undefined)	3.19 µM

Please report the recorded TGI for COC(=O)C1=COC2OC3CC1C2C(C)O3 (centres undefined) . > 100 µM

// returns reported TGI for input CC12CCC(=O)[C@@]1(C)CCCC2O (some centres undefined) > 100 µM

====

- System: HT29 colon
- Test Name: NCI tumour cell line growth inhibition, 48 h; in the data active means GI50 below about 0.43 µM; inactive means the rest
Give one outcome, nothing more. List: active, inactive

// known answers, use as guide
O=c1[nH]c2ccccc2n1C1CCN(CCOc2ccccc2)CC1	inactive
NCCCNc1nc2ccccc2c2c(=O)c3cc(F)cc(Cl)c3sc12	inactive
CCOC(=O)c1cc2c(n1Cc1ccccc1OC)-c1oncc1CCC2	inactive

Give the logged outcome of this assay for the following molecule: C[C@@H](Oc1cc(-c2cnn(C3CCNCC3)c2)cnc1N)c1c(Cl)cc(F)cc1Cl inactive

Per the records of this test, what outcome belongs to CCC(C(=O)[C@@H](C)[C@@H](O)[C@H](C)[C@@H]1O[C@@H]([C@@H](CC)C(=O)ONC(=O)c2ccccc2)CC[C@@H]1C)[C@H]1O[C@]2(C=CC(=O)[C@]3(CC[C@@](C)([C@H]4CC[C@](O)(CC)[C@H](C)O4)O3)O2)[C@H](C)C[C@@H]1C (stereo not given in full) ? active

Assay outcome for CC(=O)/C=C/c1ccc(N(CCO)Cc2ccc(C(C)(C)C)cc2)cc1 : what was it? inactive

Which result was noted for this molecule in the test: COc1ccc2[nH]c3c(O)c(-c4c(C)cc5c([nH]c6ccc(OC)cc65)c4O)c(C)cc3c2c1 inactive

For CCOC(=O)c1ccc(NC(=O)c2cccc(NC3=C(Cl)C(=O)N(Cc4ccccc4)C3=O)c2)cc1 , what call appears in the results of this test? inactive

Kindly provide the recorded test outcome for the following molecule: Nc1nc(N)c(-c2ccc(Cl)c(Cl)c2)c(CP(Cl)(Cl)(Cl)Br)n1 inactive

Which result was noted for this molecule in the test: Clc1ccc(N2N=C(c3cccc(Nc4ccncc4)c3)CC2c2ccc(Br)cc2)cc1 (stereo not given) inactive

====

- Tested on: CAKI-1 renal
- Test Name: NCI tumour cell line growth inhibition, 48 h
Reported TGI values are given for each entry in this list.

Previously resolved entries follow.
O=C(Nc1cc2cc([N+](=O)[O-])ccc2oc1=O)c1cccs1	> 100 µM
C=CCC1C(=O)CC2(C)C(CC=C)C(=O)CC12C (stereo unspecified)	> 100 µM

Which TGI reading was recorded for the compound Cc1nn(C(=O)c2ccc(Cl)cc2)c2c1C(c1ccc(Cl)cc1)SC(N)=N2 (stereo unspecified) ? > 10 µM

Would you kindly share the measured TGI for Cc1cc(S(=O)(=O)NC2=NCC(C)(C)CN2)c(S)cc1Cl ? > 100 µM

Fill blank: measured TGI of the compound CCOC(OC1=C(C#N)CCCC1)C(CC)[Se]c1ccccc1[N+](=O)[O-] (stereo unspecified) is ____. > 100 µM

Could you tell me which TGI is on file for Cc1ccc(O)c(C(c2cc(C)ccc2O)c2cc([N+](=O)[O-])ccc2O)c1 ? 24.8 µM

====

Reported TGI values for a set of compounds
- Tested on: CCRF-CEM leukemia
- Test Name: NCI tumour cell line growth inhibition, 48 h

The examples below pair each entry with its known result.
CCOC(=O)CCSC1=CC(=O)c2nc3ccccc3c3ccnc1c23	> 100 µM
CC(=O)/C=C/c1ccc(N(CCO)Cc2ccc(C(C)(C)C)cc2)cc1	208 µM
CCc1ccccc1NC(=O)C(=O)C(C#N)c1c(Cl)cccc1Cl (configuration not stated)	> 100 µM
CN1CCN(Cc2ccccc2)CC1CC#N (configuration not stated)	> 100 µM

Which TGI value belongs to CC(C)CC1NC(=O)CCC(NC(=O)C(Cc2ccc(O)cc2)NC(=O)OCc2ccccc2)C(=O)NC(Cc2ccccc2)C(=O)NC(Cc2ccccc2)NC1=O (configuration not stated) ? > 100 µM

// TGI lookup, key: O=C1c2ccccc2C(=O)c2sc(Nc3ccc([N+](=O)[O-])cc3)nc21 5.37 µM

Looking for the measured TGI of COc1cccc(-c2nn(-c3ccccc3)cc2-c2ccnc(NCCCNS(=O)(=O)c3ccc(C(F)(F)F)cc3)c2)c1 , can you help? > 100 µM

# input compound: O=C(CC1Sc2ccccc2NC1=O)NNc1ccc(F)cc1 (configuration not stated) ; wanted: its TGI > 100 µM

// TGI lookup, key: Nc1ncc2c(n1)-c1ccccc1OC2N1CCOCC1 (configuration not stated) > 100 µM

Given the compound Cc1nn(C(=O)c2ccc(Cl)cc2)c2c1C(c1ccc(Cl)cc1)SC(N)=N2 (configuration not stated) , what is its reported TGI? > 10 µM

Name the recorded TGI for COc1ccc(-c2nnc(Nc3nc(O)c(C4=c5cc(Br)ccc5=NC4=O)s3)o2)cc1 . 32.7 µM

TGI lookup needed for CCN1C/C(=C\c2ccc(Cl)cc2)c2[nH]c(=O)c(C#N)c(-c3ccc(Cl)cc3)c2C1 , thanks. > 100 µM

====

- System: SF-268 CNS
- Test Name: NCI tumour cell line growth inhibition, 48 h
Quantity Measured: TGI

Need TGI, item O=C1NC(N2CCCCC2)=N/C1=C\c1ccco1 > 100 µM

For O=C(O)c1[nH]c2c([N+](=O)[O-])cc([N+](=O)[O-])cc2c1C(=O)O , what is its reported TGI? > 100 µM

Could you share which TGI value was measured for CSc1cc(C(C)(C)C)ccc1C(O)c1ccc(C(C)(C)C)cc1SC ? 27.1 µM

Give the measured TGI of N#CC(C#N)=C1CCC2C(=C(C#N)C#N)CCC12 (stereo unspecified) . > 100 µM

Which TGI value belongs to COc1cc(/C=N/n2c(C)n[nH]c2=O)cc(OC)c1OC ? > 100 µM

May I ask what TGI has been recorded for CNC(=O)NCCN1N=C(C)/C(=C\c2ccccc2)CC1=O ? > 100 µM

Need TGI of CCCCCCCCCCCCCCCCCCOCC(O)CO (stereo unspecified) , thanks. > 25 µM

Param item = CC(=O)c1ccc(Oc2c3ccccc3nc3occc23)cc1 ; retrieve measured TGI. > 100 µM

// returns reported TGI for input CC[P+]1(c2ccccc2)CCCCC1 > 100 µM

Using the record for CC(=O)OCC1OC(n2c(O)c(N=NC(N)=S)c3ccc([N+](=O)[O-])cc32)C(OC(C)=O)C1OC(C)=O (stereo unspecified) , report its TGI. > 100 µM

Which value of TGI has been reported for CCC(=O)CCC1=Nc2nnc(CCCCc3nnc4n3C(=O)C(CCC(=O)CC)=N4)n2C1=O in the records? > 100 µM
